# target.system: human SGLT1 (Homo sapiens)
# Construct: expressed in transfected cells; host or cells: CHO-K1 or HEK293 cells
# Sequence (P13866 whole entry): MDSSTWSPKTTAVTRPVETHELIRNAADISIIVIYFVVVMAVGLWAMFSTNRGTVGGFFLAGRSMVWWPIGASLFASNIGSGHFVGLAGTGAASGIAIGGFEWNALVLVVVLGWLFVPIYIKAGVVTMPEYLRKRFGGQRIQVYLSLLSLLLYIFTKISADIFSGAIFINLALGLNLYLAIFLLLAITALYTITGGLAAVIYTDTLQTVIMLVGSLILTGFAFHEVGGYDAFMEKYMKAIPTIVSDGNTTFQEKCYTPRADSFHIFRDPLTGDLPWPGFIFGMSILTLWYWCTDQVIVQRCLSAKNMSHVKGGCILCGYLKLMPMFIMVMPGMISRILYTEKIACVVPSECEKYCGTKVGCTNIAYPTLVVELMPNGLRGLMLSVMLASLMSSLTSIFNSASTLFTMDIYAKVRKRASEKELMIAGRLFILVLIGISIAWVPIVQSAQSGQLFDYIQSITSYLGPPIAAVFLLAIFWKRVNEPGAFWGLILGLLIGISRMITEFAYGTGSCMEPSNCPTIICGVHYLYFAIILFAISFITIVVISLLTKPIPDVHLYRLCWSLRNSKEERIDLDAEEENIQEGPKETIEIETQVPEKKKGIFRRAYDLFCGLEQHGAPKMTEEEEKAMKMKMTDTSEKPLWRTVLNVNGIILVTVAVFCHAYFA
# procedure.details: hSGLT1 assay: analogous [14C]-AMG uptake in CHO-K1 or HEK293 cells expressing hSGLT1
# Assay type: cell-based
# condition.label: n = 1-4, hSGLT1-transfected cells
observation.type: IC50

                                   compound  experimental_value
0  CCOc1ccc(Cc2cc([C@@H]3O[C@H](CSc4cccc(C(=O)N5CCCC5)c4)[C@@H](O)[C@H](O)[C@H]3O)ccc2Cl)cc1 [Example 47]             < 50 nM
1  CCOc1ccc(Cc2cc([C@@H]3O[C@H](CSc4cccs4)[C@@H](O)[C@H](O)[C@H]3O)ccc2Cl)cc1 [Example 11]           < 1000 nM
2  CCOc1ccc(Cc2cc([C@@H]3O[C@H](CSc4cccc(NC(C)=O)c4)[C@@H](O)[C@H](O)[C@H]3O)ccc2Cl)cc1 [Example 80]            < 100 nM
3  CCOc1ccc(Cc2cc([C@@H]3O[C@H](CSc4cccc(C(N)=O)c4)[C@@H](O)[C@H](O)[C@H]3O)ccc2Cl)cc1 [Example 78]            < 100 nM
4  CCOc1ccc(Cc2cc([C@@H]3O[C@H](CSc4cc(C(N)=O)ccc4F)[C@@H](O)[C@H](O)[C@H]3O)ccc2Cl)cc1 [Example 26]             < 50 nM
5  CCOc1ccc(Cc2cc([C@@H]3O[C@H](CSc4cc(C(=O)NC)ccc4F)[C@@H](O)[C@H](O)[C@H]3O)ccc2Cl)cc1 [Example 27]             < 50 nM
6  CCOc1ccc(Cc2cc([C@@H]3O[C@H](CSc4cc(C(=O)N5CCC5)ccc4F)[C@@H](O)[C@H](O)[C@H]3O)ccc2Cl)cc1 [Example 37]             < 50 nM
7  CCOc1ccc(Cc2cc([C@@H]3O[C@H](CSc4cccc(C(=O)NC)c4)[C@@H](O)[C@H](O)[C@H]3O)ccc2Cl)cc1 [Example 40]             < 50 nM

Cited source for all entries: patent US20110230403A1
